System: HOP-62
ASSAY_NAME: NCI tumour cell line growth inhibition, 48 h
Calls of active or inactive are those of the source. No stated cut-off is given here; in the data, active = GI50 up to about 1.1 µM and inactive = higher.
Catalogue of GI50 readings, one per entry.

COMPOUND	GI50
O=c1cc(-c2ccccc2)oc2c1ccc1nc3ccccc3c(O)c12	88.1 µM (inactive)
CC1(c2cccc3c2C2(O)C=CC4(CCC32)OCCO4)OCCO1 (stereo not given)	> 100 µM (inactive)
CC(C)CCC[C@@H](C)C1CCC2[C@@H]3CCC4CC(CCC=C(c5cc(Cl)c(OC(=O)c6ccccc6)c(C(=O)O)c5)c5cc(Cl)c(OC(=O)c6ccccc6)c(C(=O)O)c5)CC[C@]4(C)C3CC[C@@]21C (stereo not given in full)	> 100 µM (inactive)
O=C(Oc1ccc(Cl)cc1[N+](=O)[O-])c1ccccc1	> 100 µM (inactive)
Nc1ccc(CCN2CCN(CCCc3ccccc3)CC2)cc1	> 100 µM (inactive)
CC(=O)OCc1ccc2oc(=O)c(C(=O)Oc3cccc(Cl)c3)cc2c1	99.1 µM (inactive)
c1ccc2c(-c3csc(-c4c[nH]c5ccccc45)n3)c[nH]c2c1	56.4 µM (inactive)
CN(C)CCNC(=O)c1cccc(C(=O)Nc2ccccc2)c1[N+](=O)[O-]	> 100 µM (inactive)
COC1(OC)C[C@H](C)[C@@]23O[C@]24c2cc(O)c5c(c2N[C@H]3C#C/C=C\C#C[C@]14O)C(=O)c1ccccc1C5=O	0.005 µM (active)
CCc1cn(C2CC(CO)C(CO)S2)c(=O)[nH]c1=O (stereo not given)	> 100 µM (inactive)
O=C(O)[C@H](Cc1ccccc1)NCCN1CCC[C@H]1C(=O)O	> 100 µM (inactive)
Cn1cnc([N+](=O)[O-])c1Sc1nncc2[nH]cnc12	> 100 µM (inactive)
O=C1C(Cl)=C(NCCc2ccc(O)cc2)C(=O)c2c(O)ccc(O)c21	6.56 µM (inactive)
C#C[C@]1(O)CC[C@H]2[C@@H]3CCC4=C/C(=N/OC(=O)c5cccc6c(=O)c7ccccc7[nH]c56)CC[C@@H]4[C@H]3CC[C@@]21C	> 100 µM (inactive)
CCOC(=O)/C(C#N)=C(O)/C(=C\c1ccc(Br)cc1)NC(=O)c1ccccc1	> 100 µM (inactive)
O=C1/C(=C/c2cccc([N+](=O)[O-])c2)Cc2ccccc21	> 100 µM (inactive)
Cc1n[nH]c(=O)n1/N=C/c1c[nH]c2ccccc12	> 100 µM (inactive)
CC(C)(C)OC(=O)NC(Cc1ccc(O)cn1)C(=O)O (stereo not given)	> 100 µM (inactive)
NCCCN1CCN(c2ccccc2)CC1	10.9 µM (inactive)
COC(=O)Nc1cc(OCCCOC(C)=O)c2[nH]c(C(=O)OC)cc2c1C[C@H](O)CO	> 100 µM (inactive)
